Biological target: TBK1 (Homo sapiens)
Construct: All protein kinases were of human origin and encoded full length proteins, unless indicated otherwise; His6; made in house; host or cells: insect Sf21 cells
Sequence (Q9UHD2 whole entry): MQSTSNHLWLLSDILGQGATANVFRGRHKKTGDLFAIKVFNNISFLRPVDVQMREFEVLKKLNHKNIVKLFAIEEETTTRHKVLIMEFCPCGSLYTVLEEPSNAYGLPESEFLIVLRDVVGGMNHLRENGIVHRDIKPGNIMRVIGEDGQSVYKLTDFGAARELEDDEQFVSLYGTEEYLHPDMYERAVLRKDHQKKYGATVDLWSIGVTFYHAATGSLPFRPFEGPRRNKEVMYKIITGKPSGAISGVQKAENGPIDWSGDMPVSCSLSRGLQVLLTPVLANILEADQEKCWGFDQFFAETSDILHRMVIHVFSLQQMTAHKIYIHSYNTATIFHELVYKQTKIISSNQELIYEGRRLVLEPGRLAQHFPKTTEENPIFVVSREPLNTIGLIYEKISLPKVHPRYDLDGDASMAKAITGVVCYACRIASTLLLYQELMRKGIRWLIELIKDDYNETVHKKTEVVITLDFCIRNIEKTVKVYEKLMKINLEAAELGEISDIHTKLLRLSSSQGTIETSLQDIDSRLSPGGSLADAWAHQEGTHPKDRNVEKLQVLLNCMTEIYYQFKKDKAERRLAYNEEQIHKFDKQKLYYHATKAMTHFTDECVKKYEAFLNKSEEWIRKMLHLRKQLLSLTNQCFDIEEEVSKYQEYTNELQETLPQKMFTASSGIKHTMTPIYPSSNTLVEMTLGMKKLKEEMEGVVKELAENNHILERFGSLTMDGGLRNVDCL
Experiment: TBK1 protein kinase assay ([γ-33P]ATP, P81 filterplates)
Assay type: biochemical
Conditions: 50 μM ATP; read-out: Potency (TBK1 IC50 potency score)
pIC50: −log10 of the molar value.
Result Type: pIC50

{"columns": ["Compound", "Target Entity", "pIC50"],
 "data": [
  ["O=C(NCCCNc1nc(Nc2cccc(Br)c2)ncc1C1CC1)C1CCC1", "TBK1 (Homo sapiens)", "> 7.00"],
  ["CN(C)CCN(C)c1ccc(Nc2ncc(C3CC3)c(NCCCNC(=O)C3CCC3)n2)cn1", "TBK1 (Homo sapiens)", "> 7.00"],
  ["CN1CCN(c2ccc(Nc3ncc(C4CC4)c(NCCCNC(=O)C4CCC4)n3)cc2)CC1", "TBK1 (Homo sapiens)", "> 7.00"],
  ["O=C(NCCCNc1nc(Nc2cnn(CC3CC3)c2)ncc1C1CC1)C1CCC1", "TBK1 (Homo sapiens)", "> 7.00"],
  ["O=C(NCCCNc1nc(Nc2ccc3[nH]c(=O)[nH]c3c2)ncc1C1CC1)C1CCC1", "TBK1 (Homo sapiens)", "> 7.00"],
  ["CNC(=O)c1ccc(Nc2ncc(C3CC3)c(NCCCNC(=O)C3CCC3)n2)cc1", "TBK1 (Homo sapiens)", "> 7.00"],
  ["O=C(NCCCNc1nc(Nc2ccc(CN3CCOCC3)nc2)ncc1C1CC1)C1CCC1", "TBK1 (Homo sapiens)", "> 7.00"],
  ["O=C(NCCCNc1nc(Nc2cccc(Cn3ccnc3)c2)ncc1C1CC1)C1CCC1", "TBK1 (Homo sapiens)", "> 7.00"],
  ["O=C(NCCCNc1nc(Nc2ccc(-c3cnco3)cc2)ncc1C1CC1)C1CCC1", "TBK1 (Homo sapiens)", "> 7.00"],
  ["N#CCc1cccc(Nc2ncc(C3CC3)c(NCCCNC(=O)C3CCC3)n2)c1", "TBK1 (Homo sapiens)", "> 7.00"]
]}

Pending compound:
stdin: Form field: pIC50 recorded for "CN1CCN(CCCNc2nc(Nc3cccc(F)c3)ncc2C2CC2)C1=O" with TBK1 (Homo sapiens) (enter value)
stdout: 6.00 to 7.00

Origin of values: patent US20100056524A1
